Biological target: T1, ZFP SBS#1268 (synthetic)
T1 chain: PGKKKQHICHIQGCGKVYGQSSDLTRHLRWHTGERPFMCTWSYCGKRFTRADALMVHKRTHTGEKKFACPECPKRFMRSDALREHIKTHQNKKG
Test: EMSA
Details: tags: MBP fusion
Parameter Measured: pKd
Answers are plain numbers, as −log10 of the molar value.

Param item = CTGTTGGCT (dsDNA) DNA 1: CTGTTGGCT DNA 2: AGCCAACAG ; retrieve measured pKd.
8.82
